// data source = the Human Domainome abundance scans (Beltran et al. 2025)

Examples of variants with documented abundance fitness follow.
B1: Mineralocorticoid receptor, residues 600 to 675; numbered along this chain, P08235 (parent)
chain: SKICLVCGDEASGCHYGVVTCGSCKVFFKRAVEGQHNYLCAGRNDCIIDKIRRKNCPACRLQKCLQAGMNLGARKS

- Variants of: B1
- MEASUREMENT DESCRIPTION: abundance fitness (aPCA) (normalised: wild type 0, dead -1); higher = more abundant; growth selection in yeast, the domain comes from the species named
- CONDITION DESCRIPTION: Homo sapiens

VARIANT ANNOTATION | abundance fitness
C40G | -0.986
K29W | -0.085
C59H | -0.449
H15E | -0.033
C40W | -0.697
A41W | -0.127
E10C | -0.221
R43P | -0.138
E10M | -0.177
A11W | -0.22
R53N | -0.075
V19E | 0.032
F27G | -0.827
L5H | -0.239
S23T | -0.164
K63D | -0.318
I51G | -0.016
A11Q | -0.037
S12W | -0.191
C21W | -1.22
S23K | -0.007
V26N | -0.123
